Reference source for all entries: ChEMBL document CHEMBL1158155

Tested on: A2780
ASSAY_REMARKS: Cytotoxicity against human A2780 cells after 4 days by MTT assay
Type: functional, cell-based
SETTINGS: A2780, 96 h
So basically: is IC50 under 1 µM? Then Fulfilled. Not under? Then Not fulfilled.

Threshold test, IC50 < 1 µM: `CC[C@@]1(O)C(=O)OCc2c1cc1n(c2=O)Cc2cc3c4c(ccc3nc2-1)OCN(c1ccc(F)cc1F)C4`
Not fulfilled

And what about the compound `CC[C@@]1(O)C(=O)OCc2c1cc1n(c2=O)Cc2cc3ccccc3nc2-1` ?
Fulfilled

And what about the compound `CC[C@@]1(O)C(=O)OCc2c1cc1n(c2=O)Cc2cc3c4c(ccc3nc2-1)OCN(C)C4` ?
Fulfilled

And what about the compound `CC[C@@]1(O)C(=O)OCc2c1cc1n(c2=O)Cc2cc3c4c(ccc3nc2-1)OCN(c1ccc(F)c(F)c1F)C4` ?
Not fulfilled

***
Threshold test, IC50 < 1 µM: `CC[C@@]1(O)C(=O)OCc2c1cc1n(c2=O)Cc2cc3c4c(ccc3nc2-1)OCN(c1ccc(OC)cc1)C4`
Not fulfilled

And what about the compound `CC[C@@]1(O)C(=O)OCc2c1cc1n(c2=O)Cc2cc3c4c(ccc3nc2-1)OCN(c1ccccc1OC)C4` ?
Not fulfilled

* * *

Tested on: HT-29
ASSAY_REMARKS: Cytotoxicity against human HT29 cells after 4 days by MTT assay
Assay type: functional, cell-based
SETTINGS: HT-29, 96 h
Assign pIC50 to each entry below.
Answers are plain numbers, as −log10 of the molar value.

Data request, read-out pIC50, for `CC[C@@]1(O)C(=O)OCc2c1cc1n(c2=O)Cc2cc3c4c(ccc3nc2-1)OCN(c1ccc(F)c(Cl)c1)C4`
5.95

And what about the compound `CC[C@@]1(O)C(=O)OCc2c1cc1n(c2=O)Cc2cc3c4c(ccc3nc2-1)OCN(c1ccccc1)C4` ?
6.32

And what about the compound `CC[C@@]1(O)C(=O)OCc2c1cc1n(c2=O)Cc2cc3c(CN(C)C)c(O)ccc3nc2-1` ?
6.06

With those in mind, consider the next compound.
Data request, read-out pIC50, for `CC[C@@]1(O)C(=O)OCc2c1cc1n(c2=O)Cc2cc3c4c(ccc3nc2-1)OCN(Cc1ccc(F)cc1)C4`
5.92

* * *

Test system: A2780
ASSAY_REMARKS: Cytotoxicity against human A2780 cells after 4 days by MTT assay
Type: functional, cell-based
SETTINGS: A2780, 96 h
OUTCOME_MEASURE: pIC50
Give bare numbers, as −log10 of the molar value.

Reference set, count: 4
Data request, read-out pIC50, for `CC[C@@]1(O)C(=O)OCc2c1cc1n(c2=O)Cc2cc3c4c(ccc3nc2-1)OCN(Cc1ccccc1)C4`
6.04

And what about the compound `CC[C@@]1(O)C(=O)OCc2c1cc1n(c2=O)Cc2cc3c4c(ccc3nc2-1)OCN(Cc1ccc(F)cc1)C4` ?
4.93

And what about the compound CC[C@@]1(O)C(=O)OCc2c1cc1n(c2=O)Cc2cc3c(CN(C)C)c(O)ccc3nc2-1 [TOPOTECAN] ?
5.47

And what about the compound `CC[C@@]1(O)C(=O)OCc2c1cc1n(c2=O)Cc2cc3c4c(ccc3nc2-1)OCN(c1ccc(C)cc1)C4` ?
5.67

Give pIC50 for each of the items listed below.
1. CC[C@@]1(O)C(=O)OCc2c1cc1n(c2=O)Cc2cc3c4c(ccc3nc2-1)OCN(c1ccccc1)C4
2. CCCCN1COc2ccc3nc4c(cc3c2C1)Cn1c-4cc2c(c1=O)COC(=O)[C@]2(O)CC

5.46
5.50

* * *

System: A2780
ASSAY_REMARKS: Cytotoxicity against human A2780 cells after 4 days by MTT assay
Type: functional, cell-based
SETTINGS: A2780, 96 h
Assign pIC50 to each entry below.
One number for each entry, as −log10 of the molar value.

Reference set, count: 4
Data request, read-out pIC50, for `CCN1COc2ccc3nc4c(cc3c2C1)Cn1c-4cc2c(c1=O)COC(=O)[C@]2(O)CC`
6.92

And what about the compound `CC[C@@]1(O)C(=O)OCc2c1cc1n(c2=O)Cc2cc3c4c(ccc3nc2-1)OCN(c1ccc(F)c(Cl)c1)C4` ?
5.51

And what about the compound `CC[C@@]1(O)C(=O)OCc2c1cc1n(c2=O)Cc2cc3c4c(ccc3nc2-1)OCN(c1ccccc1Cl)C4` ?
5.39

And what about the compound `CC[C@@]1(O)C(=O)OCc2c1cc1n(c2=O)Cc2cc3c4c(ccc3nc2-1)OCN(c1ccccc1C)C4` ?
5.37

With those in mind, consider the next compound.
Data request, read-out pIC50, for `CC[C@@]1(O)C(=O)OCc2c1cc1n(c2=O)Cc2cc3c4c(ccc3nc2-1)OCN(Cc1ccc(OC)cc1)C4`
4.75
